system: 786-0 renal; test: NCI-60 one-dose screen, 48 h (100 = growth as untreated, 0 = no growth, -100 = all killed); settings: 10 µM unless noted
About 83,000 compounds went through this panel and 20% of them were active in at least one assay; those are over-represented in the sample as a whole.
So I've got a bunch of compounds here, and I need their growth values.
Expressed in %, but write only the number.

Quick one: growth for `CC(=O)OC[C@]1(C)C=C2C(=O)[C@](C)(O)C3(CC3)C(C)=C2[C@H]1OC(C)=O` ?
87.8

Requested read-out: growth. Entry: `Cc1nc2ccc(Cl)cc2n1C`
101

Endpoint output: growth of `Cc1ccccc1-c1cc(-c2ccc(Br)s2)[nH]c(=O)c1C#N` . Value?
97.6

Any idea what its growth is? The compound is `O=c1ccc2ccccc2o1`
105

Recorded growth for COC(=O)C1C2CC3c4[nH]c5cc(OC)ccc5c4CCN3CC2CC(OC2CCCCO2)C1OC (configuration not stated) , please?
101

Can you look up the measured growth of `Cc1ccc(NS(=O)(=O)c2ccc(-c3cnc(C4CC4)o3)cc2)cc1` for me?
50.8

So what's the measured growth for this one? O=C1CN2CCC1C/C2=C\c1ccnc2c(Cl)cccc12 (configuration not stated)
103

Field request: growth | item: `c1ccc2cc(Cn3c(-c4ccc5ccccc5c4)[n+](Cc4ccc5ccccc5c4)c4ccccc43)ccc2c1`
-95.1

Tell me the measured growth of `COc1cc(CNCCCN2C(=O)c3ccc4c5c(ccc(c35)C2=O)C(=O)N(CCCNCc2cc(OC)c(OC)c(OC)c2)C4=O)cc(OC)c1OC` , please.
-30

Tell me the measured growth of `O=C(C[Si](CC(=O)c1cccc(C(F)(F)F)c1)CC(=O)c1cccc(C(F)(F)F)c1)c1cccc(C(F)(F)F)c1` , please.
75.8

Need growth, item `COc1cccc(Nc2nc(NCCO)c3ccccc3n2)c1`
86

Item under review: `Cc1cccc2c(=O)c3c(sc12)c(NCCCN)nc1ccccc13` . Reported growth?
52.9

Which growth value belongs to CCCCc1ccc(C(O)(CCN2CC3CCC(CC3)C2)c2ccccc2)cc1 (configuration not stated) ?
85.9

Any idea what its growth is? The compound is `O=c1nc(NO)[nH]c(=O)n1Cc1ccccc1`
101

I'd like to know its growth. The compound in question is `Cc1cc(=O)[nH]n1-c1cc(Cl)ccc1N`
104

Which growth value belongs to `CCCCCCCCCCCC(=O)[O][Sn]([CH2]CCC)([CH2]CCC)[CH2]CCC` ?
-99.7

State the recorded growth for this entry: `Cc1ccc2nc(NC(=O)CSC(=S)N3CCN(C)CC3)sc2c1`
108

Requested read-out: growth. Entry: `Nc1nc2c(s1)CCc1c-2c(Br)n(Cc2ccccc2)c1Br`
102

growth lookup needed for `O=C1/C(=C/c2ccc(Cl)cc2)CN(Cc2cn(CCCNc3ccnc4cc(Cl)ccc34)nn2)C/C1=C\c1ccc(Cl)cc1` , thanks.
-74.4

Any idea what growth was measured for COc1cccc(C2CC(=O)Nc3cc4c(cc32)CCC4)c1OC (configuration not stated) ?
79.6

# input compound: `COC(=O)c1ccc(C(=O)Nc2ccccc2N)cc1` ; wanted: its growth
80.8

If you can, please state the reported growth value of COc1cccc(C2CC(=O)Nc3cc4c(cc32)OCO4)c1OC (configuration not stated) .
114
